All figures here come from PubChem BioAssay (NCI).

Provide the recorded TGI for the entries that follow.
system: UACC-62 melanoma; assay: NCI tumour cell line growth inhibition, 48 h

**Q:** Which TGI value belongs to O=S1(=O)c2ccccc2N2C(c3ccccc3)=NOC2(c2ccccc2)CC1c1ccc(Br)cc1 (stereo unspecified) ?
**A:** > 100 µM

**Q:** Which TGI value belongs to CCCCc1nc(C)oc1C(C)C ?
**A:** > 100 µM

**Q:** Which TGI value belongs to Cc1oc2nc(N(C)C)nc(NN)c2c1C ?
**A:** > 100 µM

**Q:** Which TGI value belongs to O=C1OC(c2ccc(Cl)cc2)=N/C1=C\c1ccccc1 ?
**A:** > 100 µM

**Q:** Which TGI value belongs to O=C(Nc1n[nH]c2nc(-c3ccc(O)cc3)c(Br)cc12)C1CC1 ?
**A:** 11.9 µM

**Q:** Which TGI value belongs to CCc1ccc(Cc2ccc(CC)c(NC(=O)C(=O)C3NC(=S)NC3=O)c2CC)c(CC)c1NC(=O)C(=O)C1NC(=S)NC1=O (stereo unspecified) ?
**A:** > 100 µM

**Q:** Which TGI value belongs to CC(C)(C)OC(=O)N1CC(C)(C)N2C(=O)C3(CCCO3)C12 (stereo unspecified) ?
**A:** > 100 µM

**Q:** Which TGI value belongs to Nc1nc(SCCNC(=O)CCc2ccc(O)c(I)c2)nc2c1ncn2C1OC(CO)C(O)C1O (stereo unspecified) ?
**A:** > 100 µM

**Q:** Which TGI value belongs to COC(=O)N/N=C(\C)CC(=O)Nc1cccc([N+](=O)[O-])c1 ?
**A:** > 100 µM

**Q:** Which TGI value belongs to CC(=O)Nc1ccc(OC(C)=O)cc1 ?
**A:** 12.7 µM

**Q:** Which TGI value belongs to CN1N=C2c3ccccc3OC(c3ccccc3)[C@H]2C1c1ccccc1 (stereo partly specified) ?
**A:** > 100 µM

**Q:** Which TGI value belongs to CCO[C@H]1O[C@@H]2OC3(C)CCC4[C@H](C)CCC([C@H]1C)[C@]42OO3 (stereo partly specified) ?
**A:** > 100 µM

**Q:** Which TGI value belongs to COc1ccc(C(=O)CCN(C)C)c2ccccc12 ?
**A:** > 58.1 µM

**Q:** Which TGI value belongs to CSc1ccc2c(cc1=O)C(NC(=O)c1ccccc1)CCc1cc(O)c(O)c(O)c1-2 (stereo unspecified) ?
**A:** 25.7 µM

**Q:** Which TGI value belongs to CC1=C[C@H]([C@H]2C=C(C)C(C(N)=O)=CN2Cc2c(Cl)cccc2Cl)N(Cc2c(Cl)cccc2Cl)C=C1C(N)=O ?
**A:** > 75 µM

**Q:** Which TGI value belongs to O=[N+]([O-])c1cc(I)cc(/C=N/NS(=O)(=O)c2ccc(Cl)cc2)c1O ?
**A:** 57.6 µM

**Q:** Which TGI value belongs to Cc1ccc(/C=N/NS(=O)(=O)c2ccccc2)cc1C ?
**A:** > 100 µM

**Q:** Which TGI value belongs to O=C1NC(=NCc2ccc(F)cc2)N/C1=C\c1ccccc1Cl ?
**A:** 29.8 µM

**Q:** Which TGI value belongs to Cc1cc(=O)oc2cc3oc(N(C)c4ccccc4)nc(=O)c3cc12 ?
**A:** > 100 µM

**Q:** Which TGI value belongs to O=C1/C(=C/C=C/c2ccccc2)N=C(c2ccccc2)N1c1ccc(S(=O)(=O)Nc2nccs2)cc1 ?
**A:** 61.7 µM

**Q:** Which TGI value belongs to O=C1c2ccccc2C(=O)c2c1oc1c2c(=O)[nH]c2ccc(Cl)cc21 ?
**A:** 1.15 µM

====

tested on: OVCAR-5 ovarian; test: NCI tumour cell line growth inhibition, 48 h
Provide the recorded TGI for the entries that follow.

**Q:** Which TGI value belongs to O=C(c1ccccc1)C1OC1C(=O)c1ccccc1 (stereo not given) ?
**A:** 25.2 µM

**Q:** Which TGI value belongs to O=c1oc2ccc(Cl)cc2c(=O)n1-c1ccc(F)cc1F ?
**A:** 97.5 µM

**Q:** Which TGI value belongs to O=C1CCCCCCCCCCC1CN1CCOCC1 (stereo not given) ?
**A:** > 100 µM

**Q:** Which TGI value belongs to CCC[CH2][Sn]1([CH2]CCC)[O]CC[S]1 ?
**A:** 2.72 µM

**Q:** Which TGI value belongs to COc1cc2c(cc1O)c(=O)n(CCN(C)C)c1c3cc4c(cc3ncc21)OCO4 ?
**A:** 2.82 µM

**Q:** Which TGI value belongs to O=C1c2cn[nH]c2N=C(Nc2ccccc2)C1N=Cc1ccc([N+](=O)[O-])cc1 (stereo not given) ?
**A:** > 10 µM

**Q:** Which TGI value belongs to CC[C@]1(Cc2ccc(OC)c(OC)c2)C2CC(C(=O)OC)ON2O[C@H](OCc2ccccc2)[C@@H]1OC(C)=O (stereo not given in full) ?
**A:** > 100 µM

**Q:** Which TGI value belongs to CC12C3CC4C5CC(C(C53)[C@@H]1NCc1ccccc1)C42 (stereo not given in full) ?
**A:** > 100 µM

**Q:** Which TGI value belongs to O=C(CC1(O)C(=O)Nc2ccc([N+](=O)[O-])cc21)c1ccncc1 (stereo not given) ?
**A:** > 100 µM

**Q:** Which TGI value belongs to COC(=O)CCC(=O)c1ccc2c(c1)CC1(C2)Cc2ccc(C(=O)CCC(=O)OC)cc2C1 ?
**A:** > 100 µM

====

tested on: IGROV1 ovarian; test: NCI tumour cell line growth inhibition, 48 h; in the data active means GI50 below about 0.43 µM; inactive means the rest
Use one of these outcomes when replying: true for active, false for inactive

**Q:** Any idea what this test logged for CC(=O)Nc1ccc(OC(C)=O)cc1 ?
**A:** true

**Q:** Any idea what this test logged for CC[C@H]1CCC/C=C/[C@@H]2C[C@H](O)C[C@H]2[C@H](O)/C=C/C(=O)O1 ?
**A:** true

**Q:** Any idea what this test logged for COc1ccc(CNCCCN2C(=O)c3ccc4c5c(ccc(c35)C2=O)C(=O)N(CCCNCc2ccc(OC)c(OC)c2OC)C4=O)c(OC)c1OC ?
**A:** true

**Q:** Any idea what this test logged for Cc1nc2ccccc2c(/C=C/c2ccccc2)c1C(=O)/C=C/c1ccc(C(F)(F)F)cc1 ?
**A:** true

**Q:** Any idea what this test logged for COc1ccc(C2CC(c3ccc(OC)cc3O)=NN2c2ccc(S(N)(=O)=O)cc2)cc1 (stereo unspecified) ?
**A:** false

**Q:** Any idea what this test logged for CC(C)=Cc1cccc2[nH]c(O)c(N=Nc3ccc(S(N)(=O)=O)cc3)c12 ?
**A:** false

**Q:** Any idea what this test logged for CC[C@]12C=CCN3CC[C@@]4(c5ccc(OC)cc5N(C)[C@H]4[C@@](O)(C(=O)OC)[C@@H]1OC(=O)CCC(=O)O[C@H]1CC[C@H]4[C@@H]5CC[C@H]6CC(=O)CC[C@]6(C)[C@H]5CC[C@]14C)[C@@H]32 ?
**A:** false

**Q:** Any idea what this test logged for COc1cc2c(cc1O)c(=O)n(CCN(C)C)c1c3cc4c(cc3ncc21)OCO4 ?
**A:** true

**Q:** Any idea what this test logged for CCCS(=O)(=O)Nc1cccc(Nc2ncnc3cc(NC(=O)CCl)ccc23)c1Cl ?
**A:** false

**Q:** Any idea what this test logged for CN[C@@H](Cc1cccc2ccccc12)C(=O)N[C@@H](CC(C)C)B(O)O ?
**A:** true

**Q:** Any idea what this test logged for Fc1ccc(-c2ncn(CCCN3CCOCC3)c2-c2ccncc2)cc1 ?
**A:** false

====

Provide the recorded TGI for the entries that follow.
tested on: MDA-MB-231 breast; experiment: NCI tumour cell line growth inhibition, 48 h

**Q:** Which TGI value belongs to c1cc(C2=NCCO2)c2ccsc2c1 ?
**A:** > 100 µM

**Q:** Which TGI value belongs to O=C(Nc1cccc(C(F)(F)F)c1)c1ccc(NC2=C(Cl)C(=O)N(Cc3ccccc3)C2=O)cc1 ?
**A:** 23.9 µM

**Q:** Which TGI value belongs to Nc1ncnc2c1ncn2[C@@H]1O[C@H](COP(=O)(O)OP(=O)(O)OC[C@H]2O[C@@H](OCCCO)[C@H](O)[C@@H]2O)[C@@H](O)[C@H]1O ?
**A:** > 100 µM

**Q:** Which TGI value belongs to CCOC(=O)[C@@]1(C(C)=O)CC(C)=C(C)C[S@]1=O ?
**A:** > 100 µM

**Q:** Which TGI value belongs to O=C(Nc1ccccc1Cl)c1ccc(NC2=C(Cl)C(=O)N(C3CCCCC3)C2=O)cc1 ?
**A:** 33.3 µM

**Q:** Which TGI value belongs to Cc1ccc2[nH]c(C(=O)NN3C(=O)C(C)SC34CCC(C)CC4)c(-c3ccccc3)c2c1 (stereo not given) ?
**A:** 31.6 µM

**Q:** Which TGI value belongs to CN(CCNC(=O)c1nn(-c2ccc(Cl)cc2Cl)c2c1Cc1ccccc1-2)CCNC(=O)c1nn(-c2ccc(Cl)cc2Cl)c2c1Cc1ccccc1-2 ?
**A:** 8.88 µM

**Q:** Which TGI value belongs to [N-]=[N+]=Nc1c(-c2ccccc2)c(=O)n(-c2ccccc2)c2ccccc12 ?
**A:** > 100 µM

**Q:** Which TGI value belongs to CNC(=O)N1CN(c2ccccc2)C2(CCN(Cc3ccccc3)CC2)C1=O ?
**A:** > 100 µM

**Q:** Which TGI value belongs to COc1ccccc1NC(=O)CC(=O)n1nc(C)c(N=Nc2ccccc2Cl)c1C ?
**A:** > 100 µM

**Q:** Which TGI value belongs to CC1(C)N=c2cc3c(cc2N1c1ccc(Cl)cc1)=Nc1ccccc1N3c1ccc(Cl)cc1 ?
**A:** > 100 µM

**Q:** Which TGI value belongs to O=C(O)CN1C(=O)CN=C(c2ccccn2)c2cc(Cl)ccc21 ?
**A:** > 100 µM

**Q:** Which TGI value belongs to CN(C)/C=C/c1c2c(nc3ccccc13)C(=O)c1cccnc1C2=O ?
**A:** > 100 µM

**Q:** Which TGI value belongs to Cc1cccc2c(NCCN(C)C)c3cccc(C(=O)NCCN(C)C)c3nc12 ?
**A:** 0.728 µM

**Q:** Which TGI value belongs to CN(/N=C/c1ccccc1O)c1ccc2ccccc2n1 ?
**A:** > 100 µM

**Q:** Which TGI value belongs to CCc1[nH]nc(C(N)=O)c1N=NN(C)C ?
**A:** > 100 µM

**Q:** Which TGI value belongs to Cc1ccc2[nH]c(O)c(N=Nc3ccccc3[N+](=O)[O-])c2c1 ?
**A:** 6.03 µM

**Q:** Which TGI value belongs to N#Cc1sc2c(c1OC(=O)c1ccc(Cl)cc1Cl)c(=O)n(-c1ccccc1)c(=S)n2-c1ccccc1 ?
**A:** 75.1 µM

**Q:** Which TGI value belongs to CCOC(=O)Nc1ccc2c(c1)C(=O)N(CC)c1ccccc1O2 ?
**A:** > 100 µM

**Q:** Which TGI value belongs to O=C1CCC2(CC1CCS(=O)c1ccccc1)OCCO2 (stereo not given) ?
**A:** > 100 µM

**Q:** Which TGI value belongs to FC(F)(F)c1nc(SCc2ccc(Cl)cc2)n[nH]1 ?
**A:** > 100 µM

**Q:** Which TGI value belongs to Cc1ccc(-c2nc(/C=N/Nc3cc(C)nc4ccc(Br)cc34)c(C)o2)cc1 ?
**A:** 3.77 µM

**Q:** Which TGI value belongs to CC(=O)OCC1=CC2OC(=O)C3=COC(OC4OC(CO)C(O)C(O)C4O)C1C32 (stereo not given) ?
**A:** > 100 µM

**Q:** Which TGI value belongs to COc1ccc(NC(=O)C(C#N)=C(SC)SC)cc1 ?
**A:** > 100 µM

**Q:** Which TGI value belongs to COC(=O)CCC(=O)c1ccc2c(c1)CC1(C2)Cc2ccc(C(=O)CCC(=O)OC)cc2C1 ?
**A:** > 100 µM

**Q:** Which TGI value belongs to CC1=C2[C@@H](CC1)[C@]1(C)O[C@@](C(C)C)(C[C@H]1OC(=O)CO)[C@H]2OC(=O)CCCc1ccccc1 ?
**A:** 31.8 µM

**Q:** Which TGI value belongs to COc1cc2c3c(n(CCCn4cncn4)c(=O)c2cc1OC)-c1cc2c(cc1C3=O)OCO2 ?
**A:** > 100 µM

**Q:** Which TGI value belongs to COc1cc(NS(C)(=O)=O)ccc1Cc1c2ccccc2nc2ccccc12 ?
**A:** 2.78 µM

**Q:** Which TGI value belongs to COc1ccc(/C=C2/SC(=Nc3ccccc3)N(NC(=O)Cc3ccccc3)C2=O)c(OC)c1 ?
**A:** > 100 µM

**Q:** Which TGI value belongs to O=c1cc(-c2ccccc2)oc2c1ccc1ccccc12 ?
**A:** 67.9 µM

**Q:** Which TGI value belongs to CN1c2c(nc(N)[nH]c2=O)NCC1CCNc1ccc(C(=O)NC(CCC(=O)O)C(=O)O)cc1 (stereo not given) ?
**A:** 3050 µM

**Q:** Which TGI value belongs to FC(F)(F)c1cc(NC(=S)N2c3ccccc3-n3cccc3C2c2cccnc2)cc(C(F)(F)F)c1 (stereo not given) ?
**A:** 31.1 µM

**Q:** Which TGI value belongs to O=c1oc2ccc(Cl)cc2c(=O)n1-c1ccc(F)cc1F ?
**A:** 8.2 µM

**Q:** Which TGI value belongs to COc1ccc(C2CC(c3ccc(OC)cc3O)=NN2c2ccc(S(N)(=O)=O)cc2)cc1 (stereo not given) ?
**A:** > 100 µM

**Q:** Which TGI value belongs to O=S(=O)(O)c1cc(S(=O)(=O)O)c2c(N=Nc3ccc(S(=O)(=O)O)c4ccccc34)c(O)ccc2c1 ?
**A:** > 100 µM

**Q:** Which TGI value belongs to COc1ccc2c(=O)c3c([nH]c2c1)OCC3=O ?
**A:** > 100 µM

**Q:** Which TGI value belongs to CC1=C[C@H]([C@H]2C=C(C)C(C(N)=O)=CN2Cc2c(Cl)cccc2Cl)N(Cc2c(Cl)cccc2Cl)C=C1C(N)=O ?
**A:** > 75 µM

**Q:** Which TGI value belongs to CC(=O)Nn1cnc(C(=N)C#N)c1N ?
**A:** > 100 µM

**Q:** Which TGI value belongs to CC(ON1[C@](C)(c2ccccc2)CC[C@@]1(C)c1ccccc1)c1ccccc1 (stereo not given in full) ?
**A:** > 100 µM

**Q:** Which TGI value belongs to C#Cc1cccc(NC(=O)c2cccc(NC(=O)CCl)c2)c1 ?
**A:** 37.2 µM
